# System: 616215-338-R-J1-PDC spheroids with HUVEC/MSC, viability;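 note: spheroids exposed to agents for seven days before the viability read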
# ASSAY_REMARKS: Anticancer human tumor 616215-338-R-J1-PDC patient-derived colon adenocarcinoma cell line growth inhibition [PI3K]
# PARTICULARS: second compound 0.01 µM; first compound 0.000316 µM; hits give low values
The entries below come with measured viability, T/C values attached.

- COMPOUND: "CC(=O)c1c(C)c2cnc(Nc3ccc(N4CCNCC4)cn3)nc2n(C2CCCC2)c1=O + CC(Nc1ccc2c(c1)OCCn1cc(N3C(=O)OCC3C(F)F)nc1-2)C(N)=O"
  viability, T/C: "99.6%"
- COMPOUND: "Cn1ncnc1[C@H]1c2n[nH]c(=O)c3cc(F)cc(c23)N[C@@H]1c1ccc(F)cc1 + COc1c(OCCCN2CCOCC2)ccc2c3n(c(=NC(=O)c4cnc(N)nc4)nc12)CCN3"
  viability, T/C: "93.8%"
- COMPOUND: "Cn1ncnc1[C@H]1c2n[nH]c(=O)c3cc(F)cc(c23)N[C@@H]1c1ccc(F)cc1 + CC(Nc1ccc2c(c1)OCCn1cc(N3C(=O)OCC3C(F)F)nc1-2)C(N)=O"
  viability, T/C: "85.9%"
- COMPOUND: "CC(C)n1nc(-c2ccc3oc(N)nc3c2)c2c(N)ncnc21 + COc1c(OCCCN2CCOCC2)ccc2c3n(c(=NC(=O)c4cnc(N)nc4)nc12)CCN3"
  viability, T/C: "104%"
- COMPOUND: "CC(C)n1nc(-c2ccc3oc(N)nc3c2)c2c(N)ncnc21 + CC(Nc1ccc2c(c1)OCCn1cc(N3C(=O)OCC3C(F)F)nc1-2)C(N)=O"
  viability, T/C: "93%"
- COMPOUND: "CC(=O)c1c(C)c2cnc(Nc3ccc(N4CCNCC4)cn3)nc2n(C2CCCC2)c1=O + COc1c(OCCCN2CCOCC2)ccc2c3n(c(=NC(=O)c4cnc(N)nc4)nc12)CCN3"
  viability, T/C: "93.4%"
